Target: KRAS wt(8-16) peptide … with HLA-A11 and b2M on peptide-pulsed MINO cells (human)
Test: flow cytometry, phage-displayed scFv on peptide-pulsed MINO cells (FIG. 10)
measure: binding result

[[record]]
binder = "KRAS_G12D_A11_c14 (scFv) scFv: DIQMTQSPSSLSASVGDRVTITCRASQDVNTAVAWYQQKPGKAPKLLIYSASFLYSGVPSRFSGSRSGTDFTLTISSLQPEDFATYYCQQYSFYPFTFGQGTKVEIKRTGGGSGGGGSGGGASEVQLVESGGGLVQPGGSLRLSCAASGFNFGSYIHWVRQAPGKGLEWVAIISGYSGNTYYADSVKGRFTISADTSKNTAYLQMNSLRAEDTAVYYCSRSNQSAYSYMDYWGQGTLVTVSS"
result_value = "no binding"

[[record]]
binder = "KRAS_G12D_A11_c19 (scFv) scFv: DIQMTQSPSSLSASVGDRVTITCRASQDVNTAVAWYQQKPGKAPKLLIYSASFLYSGVPSRFSGSRSGTDFTLTISSLQPEDFATYYCQQYSYYPITFGQGTKVEIKRTGGGSGGGGSGGGASEVQLVESGGGLVQPGGSLRLSCAASGFNLSYSYMHWVRQAPGKGLEWVAVISGFSGNTYYADSVKGRFTISADTSKNTAYLQMNSLRAEDTAVYYCSRSDSYYTAMDYWGQGTLVTVSS"
result_value = "no binding"

[[record]]
binder = "KRAS_G12D_A11_c117 (scFv) scFv: DIQMTQSPSSLSASVGDRVTITCRASQDVNTAVAWYQQKPGKAPKLLIYSASFLYSGVPSRFSGSRSGTDFTLTISSLQPEDFATYYCQQYDYRPVTFGQGTKVEIKRTGGGSGGGGSGGGASEVQLVESGGGLVQPGGSLRLSCAASGFNVSTSGMHWVRQAPGKGLEWVAFIYGAYSGTYYADSVKGRFTISADTSKNTAYLQMNSLRAEDTAVYYCSRSQSYTYWSAMDYWGQGTLVTVSS"
result_value = "no binding"


Hello, the source for this data is patent US20200079854A1, in case you need it.
